Entries and their measured Max MFI follow.
molecular target: human CDH6 with EC4 removed, on HEK293T cells (HEK293T-hCDH6-EC4 deletion) (human) (UniProt P55285); assay: FACS, HEK293T-hCDH6-EC4 deletion cells
I only need the number, in MFI, no unit after it.

Binder: CHI-CDH6-4 (antibody, human IgG1, kappa, V domains shown) VH: QVQLQQSGPELVKPGASVKISCKASGYAFSNFWMNWVKQRPGKGLEWIGWIYPGDGDTNYNGKFKDKATLTADKSSSTAYIQLSSLTSEDSAVYFCARLYDAWGFFDYWGQGTTLTVSS VL: QIVLTQSPAIMSASPGQKVTITCSASSSVNYMHWYQQKLGSSPKLWIYDKSKLAPGVPARFSGSGSGTSYSLTISSMEAEDAASYFCHQWSSYPPMTFGGGTKLEIKR
Max MFI / MFI: 22200
//
Binder: CHI-CDH6-14 (antibody, human IgG1, kappa, V domains shown, also called CHI- hCDH6-14) VH: QIQLQQSGPELVKPGTSVKISCKASGYTFTDNYINWVRQRPGQGLEWIGWIYPGTGNSYYNEKFKGKATLTVDTSSSTAYMQFSSLTSEDSAVYLCASSYGDSFDYWGQGTTLTVSS VL: DIQMTQTTSSLSASLGNRVTISCRASQDIRNYLNWYQQKPDGTFKLLISYTSRLHSGVPSRFSGSGSGTDYSLTVSNLEPEDIATYYCQQYSQLPWTFGGGSRLEIKR
Max MFI / MFI: 26600
//
Binder: CHI-CDH6-5 (antibody, human IgG1, kappa, V domains shown) VH: QVQLQQSGAELVRPGTSVKMSCKAAEYTFTNYWIGWVKQRPGHGLEWIGDLYPGGDHANYNEKFEGKATLTADTSSSTAYMQLSSLTSEDSAIYYCARGMLTTGFDSWGQGTTLTVSS VL: DIVMSQSPSSLAVSAGEKVTMSCKSSQSLFNSRTRKNYLAWYQQKPGQSPKLLIYWASTRESGVPDRFTGSGSGTDFTLTISSVQAEDLAVYYCKQSYYLRTFGGGTKLEIKR
Max MFI / MFI: 18700

// moving on: another record for Max MFI
In: # Max MFI lookup, item NOV0712 (antibody, human IgG1, kappa, V domains shown) VH: QVQLLESGGGLVQPGGSLRLSCAASGFTFSSHGMHWVRQAPGKGLEWVSVISGSGSNTGYADSVKGRFTISRDNSKNTLYLQMNSLRAEDTAVYYCARQWGSYAFDSWGQGTLVTVSS VL: DIQMTQSPSSLSASVGDRVTITCRASQSISSYLNWYQQKPGKAPKLLIYAVSTLQSGVPSRFSGSGSGTDFTLTISSLQPEDFATYYCQQSGTFPPTTFGQGTKVEIKR
Out: 20600

Where do these numbers come from? They come from patent EP4663661A1.
